Test system: CAKI-1
Test: NCI tumour cell line growth inhibition, 48 h
Active and inactive are the calls of the source. No stated cut-off is given here; in the data, active = GI50 up to about 1.1 µM and inactive = higher.
measurement_kind: GI50

Prompt line: May I ask what GI50 has been recorded for O=C1C(Br)=C(c2ccccc2)O/C1=C/C(=O)c1ccc(Br)cc1 ?
Response line: 19 µM (inactive)

Prompt line: Subsequent entry: CCOc1ccc(/C(C=O)=C(\Cl)c2ccc(OC)cc2)cc1
Response line: > 40 µM (inactive)

Prompt line: And the next one, O=[N+]([O-])c1cccc(-c2ccc([C@H]3CC(c4ccc(Cl)cc4)=NN3)o2)c1 ?
Response line: 26.1 µM (inactive)

Prompt line: And then CCC(CCCN)Nc1cc(OC)cc2c(C)ccnc12 (centres undefined) , what is it?
Response line: 15.5 µM (inactive)

Prompt line: Please do the same for NS(=O)(=O)c1ccc2c(c1)OCCOCCOCCOCCO2 as well.
Response line: > 100 µM (inactive)

Prompt line: Okay, and Cc1cn(C2CC(N)C(C(=O)NCC(=O)O)O2)c(=O)[nH]c1=O (centres undefined) ?
Response line: > 100 µM (inactive)

Prompt line: Also, O=C1NCC2=C1CCC1c3ccccc3CCN21 (centres undefined) please.
Response line: > 100 µM (inactive)

Prompt line: Then what about the molecule O=C1C(Cl)C(c2ccccc2)N1n1cnc2ccccc2c1=O (centres undefined) ?
Response line: 37.8 µM (inactive)

Prompt line: Thanks! And CC1OC(O)C(O)C(O)C1O (centres undefined) ?
Response line: > 100 µM (inactive)

Prompt line: Entry C[C@@H]1OCC(O)C([C@H]2OC(c3ccccc3)=N[C@H]2CO)O1 (some centres undefined) please
Response line: > 100 µM (inactive)

Prompt line: Repeat for the following molecule: NC(=O)CCC(NC(=O)c1c2ccccc2nc2ccccc12)C(=O)O (centres undefined)
Response line: > 100 µM (inactive)

Prompt line: // next record CCOC(=O)c1nc2c(Cl)c3ncccc3cc2[nH]c1=O
Response line: 66.5 µM (inactive)

Prompt line: Another molecule: CCC/N=C/c1cc(Cc2ccc(O)c(/C=N/CCC)c2)ccc1O
Response line: 21.1 µM (inactive)

Prompt line: # iterate: O=CC12c3ccccc3C(c3ccccc31)C1C(=O)NC(=O)C12 (centres undefined)
Response line: 54.2 µM (inactive)

Prompt line: Can you check N#Cc1nc(CCC(c2nc(C#N)c(N)o2)N2C(=O)c3ccccc3C2=O)oc1N (centres undefined) next?
Response line: > 100 µM (inactive)

Prompt line: Also COc1ccc(/C(Cl)=C(\C=O)c2ccc(F)cc2)cc1OC ?
Response line: 19.1 µM (inactive)

Prompt line: # repeat for Cc1ccc(S(=O)(=O)N2C[C@](O)(c3ccccc3)[C@H]2C)cc1
Response line: > 100 µM (inactive)

Prompt line: Another: O=C1CCCC/C1=C(\Br)I
Response line: 12.4 µM (inactive)

Prompt line: Now this one: CCOC(=O)C1CC(=O)C=C2CCCCC21 (centres undefined)
Response line: > 100 µM (inactive)

Prompt line: Do the same for O=C(NCCCCCCNC(=O)OCCSCCn1cc(C(=O)NC(=O)OCc2ccccc2)c(=O)[nH]c1=O)OCCSCCn1cc(C(=O)NC(=O)OCc2ccccc2)c(=O)[nH]c1=O please
Response line: > 100 µM (inactive)

Prompt line: And then Cc1nnc([C@@]2(C)CC[C@H]3[C@@H](CCC4=CC(=O)CC[C@@]43C)[C@@H]2CC#N)o1 , what is it?
Response line: > 100 µM (inactive)

Prompt line: Record: O=C1CSC(c2ccccc2[N+](=O)[O-])N1c1ccc(-c2ccc(-n3c(-c4ccccc4)nc4ccccc4c3=O)cc2)cc1 (centres undefined)
Response line: > 100 µM (inactive)

Prompt line: Would you mind doing COC(=O)c1cccc(C)c1C1CN=NC12Cc1c(ccc(C)c1C)C2=O (centres undefined) as well?
Response line: 91.2 µM (inactive)

Prompt line: Note, next up: C=C1C[C@@H](O)[C@@H](Br)C(C)(C)[C@@]12C=CC(=O)CC2
Response line: > 100 µM (inactive)

Prompt line: And for CC(C)CSCC1OC(n2cnc3c(N)nccc32)C(O)C1O (centres undefined) ?
Response line: > 100 µM (inactive)

Prompt line: Input CCOC(=O)[C@H]1C[C@@H](C(=O)c2ccccc2)N2N=C(c3ccc(Br)cc3)C=C[C@H]12
Response line: > 100 µM (inactive)

Prompt line: Item: CN1C(=O)[C@@H]2N(CSC2(C)C)C1=S
Response line: > 100 µM (inactive)

Prompt line: And for Fc1cccc(Cl)c1/C=N\N=C1c2ccccc2-c2ccccc21 ?
Response line: > 100 µM (inactive)

Prompt line: Thanks! And O=C1/C(=C/c2cccnc2)SC(=S)N1Cc1ccco1 ?
Response line: 9.59 µM (inactive)

Prompt line: Subsequent entry: CCOP(=O)(OCC)/C(C#N)=C/c1cccn1CC(C)C
Response line: > 100 µM (inactive)

Prompt line: Try this molecule too: N#CN=C(NCCO)NCCO
Response line: > 100 µM (inactive)

Prompt line: Same again, this time with NC1=NN(c2ccccc2)C(=O)C1/C(=N\NC(=O)c1cc2ccccc2cc1O)C(=O)Nc1nc([N+](=O)[O-])cs1 (centres undefined)
Response line: > 25.6 µM (inactive)

Prompt line: Entry C/N=C(\N=c1/ss/c(=N\C)n1C)N(C)C.[O-][Cl+3]([O-])([O-])O please
Response line: 78.2 µM (inactive)

Prompt line: Thanks! And CCOC(=O)c1cc2c([nH]1)c(OC(C)=O)cc1c2ccn1Cc1ccccc1 ?
Response line: > 100 µM (inactive)

* * *

Tested on: SNB-75
Assay: NCI tumour cell line growth inhibition, 48 h
Activity calls are given as the source filed them. Rule as the data show it: active = GI50 up to about 1.1 µM and inactive = higher.
Your answer must be one of the following: class 1 for active, class 0 for inactive

Prompt line: Identify the outcome logged in this assay for the molecule shown: CN(C)CCCNC(=O)CNC(=O)c1cc(NC(=O)c2cc(NC(=O)c3cc(NC(=O)CCNC(=O)c4cc(NC(=O)c5cc(NC(=O)c6nccn6C)cn5C)cn4C)cn3C)cn2C)cn1C
Response line: class 0

Prompt line: Moving on to the next molecule: N/N=C1\C(=O)N(C2CCCCC2)C(=O)C1C(=O)NC1CCCCC1 (stereo unspecified)
Response line: class 0

Prompt line: What do we get for COC(=O)C1C(=O)NC2(C)CC1c1ccccc1O2 (stereo unspecified) ?
Response line: class 0

Prompt line: # repeat for CCCC(=O)NC1=C(Cl)C(=O)c2ccccc2C1=O
Response line: class 0

Prompt line: Try this molecule too: COc1ccc(C(C#N)NC23CC4CC(CC(C4)C2)C3)cc1 (stereo unspecified)
Response line: class 0

Prompt line: Also O=C(CC1(O)C(=O)Nc2ccc(Br)cc21)c1ccc(Cl)cc1 (stereo unspecified) ?
Response line: class 0

Prompt line: Try this molecule next: Cc1nnc([C@@]2(C)CC[C@H]3[C@@H](CCC4=CC(=O)CC[C@@]43C)[C@@H]2CC#N)o1
Response line: class 0

Prompt line: Continue with COC(=O)[C@]1(C)CC[C@]2(C)CC[C@]3(C)C4[C@H]5Oc6c(cc7c(c6C)CCC6[C@@]7(C)CC[C@@]7(C)C8[C@](C)(CCC[C@@]8(C)C(=O)OC)CC[C@]67C)O[C@H]5c5c(cc6c(c5C)O[C@@]5(C)C7=CC=C8[C@@](C)(CC[C@@]9(C)[C@@H]%10C[C@](C)(C(=O)OC)CC[C@]%10(C)CC[C@]89C)C7=CC(=O)[C@@]5(O)O6)[C@]4(C)CC[C@@]3(C)C2C1 (stereo partly specified)
Response line: class 0

Prompt line: Continue with COC(=O)C(CCCCN)NC(C)=O.Cc1ccc(C(=O)Nc2ccc(S(=O)(=O)O)c3cc(S(=O)(=O)O)cc(S(=O)(=O)O)c23)cc1NC(=O)c1cccc(NC(=O)Nc2cccc(C(=O)Nc3cc(C(=O)Nc4ccc(S(=O)(=O)O)c5cc(S(=O)(=O)O)cc(S(=O)(=O)O)c45)ccc3C)c2)c1
Response line: class 0

Prompt line: Now consider Cc1ccc2c(c1)CNc1ccc(C)cc1CN2 .
Response line: class 0

Prompt line: Here is the next molecule: CS(=O)(=O)N(CC(=O)O)Cc1ccccc1
Response line: class 0

Prompt line: // next record CNC1=C/C(=N/C2=CC(=N/C(=C\C#N)C(C)(C)O)/OC2(C)C)OC1(C)C
Response line: class 0

Prompt line: Try this molecule next: N#CC(C#N)=C1NC(=O)C(c2ccccc2)C(=O)N1 (stereo unspecified)
Response line: class 0

Prompt line: Field entry: C/C(=N\N=C(\N)OB(F)F)c1ccccn1
Response line: class 0

Prompt line: Now try CCOC(=O)Nc1ccc2c(c1)N(C(=O)CCN(CC)CC)c1ccccc1S2 [ETHACIZINE] .
Response line: class 0

Prompt line: Similarly, CCN(CC)CC[n+]1ccc2c(C)c3[nH]c4ccc(O)cc4c3c(C)c2c1 ?
Response line: class 1

Prompt line: Same read-out for O=C1CSC(c2ccccc2[N+](=O)[O-])N1c1ccc(-c2ccc(-n3c(-c4ccccc4)nc4ccccc4c3=O)cc2)cc1 (stereo unspecified) ?
Response line: class 0

Prompt line: Ok, now COc1ccccc1-c1nc(-c2ccccc2O)n[nH]1
Response line: class 0

Prompt line: Thanks! And O=C1C(Cl)C(c2ccccc2)N1n1cnc2ccccc2c1=O (stereo unspecified) ?
Response line: class 0

Prompt line: What would you report for Nc1ccc(C(=O)N2CCC[C@H]2CO)c(N)c1 ?
Response line: class 0

Prompt line: Okay, and O=C1NCC2=C1CCC1c3ccccc3CCN21 (stereo unspecified) ?
Response line: class 0
